Protocol conditions: buffer; pH 7.4; 200.0 µM
Property name: log10(solubility kinetic) (log10 of the value in µg/mL)
Would you kindly interpret these values as log10 of solubility kinetic expressed in µg/mL?

Query string: Field request: log10(solubility kinetic) | item: `CSc1ncccc1C(=O)Nc1cc(Cl)ccc1N1CCOCC1`
Result string: 0.64

Query string: How about CCc1ccc(/C=C(\C#N)C(=O)NC2CCS(=O)(=O)C2)cc1 (configuration not stated) ?
Result string: 0.89

Query string: How about `Cc1ccc(C)c(S(=O)(=O)c2c(C)cc(C)[nH]c2=O)c1` ?
Result string: 1.46

Query string: How about `O=C(/C=C/c1cccs1)NCc1cccs1` ?
Result string: 1.51

Query string: How about `Cc1ccc(CNC(=O)c2ccc(S(=O)(=O)N(C)C)cc2)n1C` ?
Result string: 1.69

Query string: How about `COc1nc(-c2ccccc2)c2cc(C)ccc2n1` ?
Result string: 1.19

Query string: How about CCCN1C(=O)c2ccccc2NC1c1ccc(Cl)cc1 (configuration not stated) ?
Result string: 0.51

Query string: How about `N#Cc1ccc(C(=O)NC2=NCCS2)cc1` ?
Result string: 1.34
